Where these numbers come from: PubChem BioAssay AID1918935

# System: 324938-238-R-J1-PDC complex spheroid viability
# Procedure details: Anticancer human tumor 324938-238-R-J1-PDC patient-derived bladder carcinoma cell line growth inhibition; active means viability on the fitted dose curve at most 10% of control; inactive means the rest
# Experimental context: second compound 1 µM; first compound 0.00949 µM
Allowed answers: active, inactive

Problem: Test call, this compound: Nc1ccn(C2OC(CO)C(O)C2(F)F)c(=O)n1 (centres undefined) + NC1CC1c1ccc(-c2cccc(O)c2)cc1
Solution: active

Problem: Test call, this compound: NS(=O)(=O)OCC1CC(n2ccc3c(NC4CCc5ccccc54)ncnc32)CC1O (centres undefined) + NC1CC1c1ccc(-c2cccc(O)c2)cc1
Solution: inactive

Problem: Test call, this compound: COc1cc(C2c3cc4c(cc3C(OC3OC5COC(C)OC5C(O)C3O)C3COC(=O)C23)OCO4)cc(OC)c1O (centres undefined) + NC1CCC(NC2CC2c2ccccc2)CC1
Solution: inactive

Problem: Test call, this compound: CCc1c2c(nc3ccc(O)cc13)-c1cc3c(c(=O)n1C2)COC(=O)[C@]3(O)CC + NC1CC1c1ccc(-c2cccc(O)c2)cc1
Solution: active

###

# Test system: 324938-238-R-J1-PDC complex spheroid viability
# Procedure details: Anticancer human tumor 324938-238-R-J1-PDC cell line growth inhibition;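 further: spheroids also contain HUVEC and human MSCs and agents combined with iadademstat; spheroids exposed to agents for 7 days before readout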
# Experimental context: curve of first compound; second compound 10 µM
# Source text: Multicellular complex tumor spheroid response to LSD1 Inhibitor Iadademstat in combination with a variety of drugs and investigational agents in selected tumor cell lines The current study was undertaken to assess response to LSD1 inhibitors in combination with standard-of-care drugs and investigational agents in solid tumor complex spheroid models as well as in the K-562 leukemia. […] Compounds. […] If the clinical Cmax for an agent had not been determined, the highest concentration tested was 10 microM. […]
Would you kindly list IC50 for each of these compounds?

Kindly note: 324938-238-R-J1-PDC complex spheroid viability, Cn1ncnc1C1c2n[nH]c(=O)c3cc(F)cc(c23)NC1c1ccc(F)cc1 (stereo not given) + NC1CCC(NC2CC2c2ccccc2)CC1 , IC50 value reported: 73.8 nM

Kindly note: 324938-238-R-J1-PDC complex spheroid viability, Nc1ccn(C2OC(CO)C(O)C2(F)F)c(=O)n1 (stereo not given) + NC1CCC(NC2CC2c2ccccc2)CC1 , IC50 value reported: < 0.949 nM

Kindly note: 324938-238-R-J1-PDC complex spheroid viability, O=C(C=Cc1cccc(S(=O)(=O)Nc2ccccc2)c1)NO + NC1CCC(NC2CC2c2ccccc2)CC1 , IC50 value reported: 10.4 nM

Kindly note: 324938-238-R-J1-PDC complex spheroid viability, O=C(C=Cn1cnc(-c2cc(C(F)(F)F)cc(C(F)(F)F)c2)n1)NNc1cnccn1 + NC1CC1c1ccc(-c2cccc(O)c2)cc1 , IC50 value reported: < 3.16 nM

Kindly note: 324938-238-R-J1-PDC complex spheroid viability, Nc1ncn(C2CC(O)C(CO)S2)c(=O)n1 (stereo not given) + NC1CC1c1ccc(-c2cccc(O)c2)cc1 , IC50 value reported: 9.28 nM

Kindly note: 324938-238-R-J1-PDC complex spheroid viability, CC(C)CC(NC(=O)CNC(=O)c1cc(Cl)ccc1Cl)B1OC(=O)CC(CC(=O)O)(C(=O)O)O1 (stereo not given) + NC1CCC(NC2CC2c2ccccc2)CC1 , IC50 value reported: 1.75 nM

Kindly note: 324938-238-R-J1-PDC complex spheroid viability, CC(C)CC(NC(=O)C(Cc1ccccc1)NC(=O)c1cnccn1)B(O)O (stereo not given) + NC1CCC(NC2CC2c2ccccc2)CC1 , IC50 value reported: 0.434 nM

Kindly note: 324938-238-R-J1-PDC complex spheroid viability, O=C(C=Cn1cnc(-c2cc(C(F)(F)F)cc(C(F)(F)F)c2)n1)NNc1cnccn1 + NC1CCC(NC2CC2c2ccccc2)CC1 , IC50 value reported: 4.01 nM

Kindly note: 324938-238-R-J1-PDC complex spheroid viability, NS(=O)(=O)OCC1CC(n2ccc3c(NC4CCc5ccccc54)ncnc32)CC1O (stereo not given) + NC1CCC(NC2CC2c2ccccc2)CC1 , IC50 value reported: 323 nM

Kindly note: 324938-238-R-J1-PDC complex spheroid viability, COc1cc(Nc2ncc3c(n2)-c2ccc(Cl)cc2C(c2c(F)cccc2OC)=NC3)ccc1C(=O)O + NC1CCC(NC2CC2c2ccccc2)CC1 , IC50 value reported: 20.7 nM

Kindly note: 324938-238-R-J1-PDC complex spheroid viability, CC[C@@]1(O)C(=O)OCc2c1cc1n(c2=O)Cc2cc3c(CN(C)C)c(O)ccc3nc2-1 + NC1CC1c1ccc(-c2cccc(O)c2)cc1 , IC50 value reported: 1.17 nM

Kindly note: 324938-238-R-J1-PDC complex spheroid viability, Cn1ncnc1C1c2n[nH]c(=O)c3cc(F)cc(c23)NC1c1ccc(F)cc1 (stereo not given) + NC1CC1c1ccc(-c2cccc(O)c2)cc1 , IC50 value reported: 59.8 nM

Kindly note: 324938-238-R-J1-PDC complex spheroid viability, CCN(c1cc(-c2ccc(CN3CCOCC3)cc2)cc(C(=O)NCc2c(C)cc(C)[nH]c2=O)c1C)C1CCOCC1 + NC1CC1c1ccc(-c2cccc(O)c2)cc1 , IC50 value reported: > 3000 nM

Kindly note: 324938-238-R-J1-PDC complex spheroid viability, COc1ccc([C@@H](O)c2cc(-c3ncnc4cc(N5CCOCC5)ccc34)c(F)cc2Cl)nn1 + NC1CC1c1ccc(-c2cccc(O)c2)cc1 , IC50 value reported: 439 nM

Kindly note: 324938-238-R-J1-PDC complex spheroid viability, Nc1ccn(C2OC(CO)C(O)C2(F)F)c(=O)n1 (stereo not given) + NC1CC1c1ccc(-c2cccc(O)c2)cc1 , IC50 value reported: < 0.949 nM

###

# Tested on: 324938-238-R-J1-PDC complex spheroid viability
# Procedure details: Anticancer human tumor 324938-238-R-J1-PDC cell line growth inhibition;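 further: spheroids also contain HUVEC and human MSCs and agents combined with iadademstat; spheroids exposed to agents for 7 days before readout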
# Experimental context: second compound 0.316 µM; first compound 3.16 µM; stronger effect = lower value
Entries whose viability, T/C is below 50% take true (1); entries at or above 50% take false (0).

Problem: Does the reported viability, T/C of the following molecule sit strictly below 50%? COc1ccc([C@@H](O)c2cc(-c3ncnc4cc(N5CCOCC5)ccc34)c(F)cc2Cl)nn1 + NC1CCC(NC2CC2c2ccccc2)CC1
Solution: true (1)

Problem: Does the reported viability, T/C of the following molecule sit strictly below 50%? COc1ccc([C@@H](O)c2cc(-c3ncnc4cc(N5CCOCC5)ccc34)c(F)cc2Cl)nn1 + NC1CC1c1ccc(-c2cccc(O)c2)cc1
Solution: true (1)

Problem: Does the reported viability, T/C of the following molecule sit strictly below 50%? CC1(C)CCC(CN2CCN(c3ccc(C(=O)NS(=O)(=O)c4ccc(NCC5CCOCC5)c([N+](=O)[O-])c4)c(Oc4cnc5[nH]ccc5c4)c3)CC2)=C(c2ccc(Cl)cc2)C1 + NC1CC1c1ccc(-c2cccc(O)c2)cc1
Solution: false (0)

Problem: Does the reported viability, T/C of the following molecule sit strictly below 50%? CC1(C)CCC(CN2CCN(c3ccc(C(=O)NS(=O)(=O)c4ccc(NCC5CCOCC5)c([N+](=O)[O-])c4)c(Oc4cnc5[nH]ccc5c4)c3)CC2)=C(c2ccc(Cl)cc2)C1 + NC1CCC(NC2CC2c2ccccc2)CC1
Solution: false (0)

Problem: Does the reported viability, T/C of the following molecule sit strictly below 50%? O=C(c1cc(Cc2n[nH]c(=O)c3ccccc23)ccc1F)N1CCN(C(=O)C2CC2)CC1 + NC1CC1c1ccc(-c2cccc(O)c2)cc1
Solution: true (1)

###

# Tested on: 324938-238-R-J1-PDC complex spheroid viability
# Procedure details: Anticancer human tumor 324938-238-R-J1-PDC cell line growth inhibition; active means viability on the fitted dose curve at most 10% of control; inactive means the rest;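 further: spheroids also contain HUVEC and human MSCs and agents combined with iadademstat; spheroids exposed to agents for 7 days before readout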
# Experimental context: second compound 0.1 µM; first compound 0.03 µM
Allowed answers: active, inactive

Problem: Test call, this compound: Nc1ccn(C2OC(CO)C(O)C2(F)F)c(=O)n1 (stereo unspecified) + NC1CCC(NC2CC2c2ccccc2)CC1
Solution: active

Problem: Test call, this compound: COc1cc(C2c3cc4c(cc3C(OC3OC5COC(C)OC5C(O)C3O)C3COC(=O)C23)OCO4)cc(OC)c1O (stereo unspecified) + NC1CC1c1ccc(-c2cccc(O)c2)cc1
Solution: inactive

Problem: Test call, this compound: CCc1c2c(nc3ccc(O)cc13)-c1cc3c(c(=O)n1C2)COC(=O)[C@]3(O)CC + NC1CC1c1ccc(-c2cccc(O)c2)cc1
Solution: active

Problem: Test call, this compound: Nc1ncn(C2CC(O)C(CO)S2)c(=O)n1 (stereo unspecified) + NC1CCC(NC2CC2c2ccccc2)CC1
Solution: inactive

Problem: Test call, this compound: CCc1c2c(nc3ccc(O)cc13)-c1cc3c(c(=O)n1C2)COC(=O)[C@]3(O)CC + NC1CCC(NC2CC2c2ccccc2)CC1
Solution: active

Problem: Test call, this compound: O=C(C=Cc1cccc(S(=O)(=O)Nc2ccccc2)c1)NO + NC1CC1c1ccc(-c2cccc(O)c2)cc1
Solution: inactive

Problem: Test call, this compound: Nc1ncn(C2CC(O)C(CO)S2)c(=O)n1 (stereo unspecified) + NC1CC1c1ccc(-c2cccc(O)c2)cc1
Solution: inactive

Problem: Test call, this compound: NS(=O)(=O)OCC1CC(n2ccc3c(NC4CCc5ccccc54)ncnc32)CC1O (stereo unspecified) + NC1CCC(NC2CC2c2ccccc2)CC1
Solution: inactive

Problem: Test call, this compound: Nc1ccccc1NC(=O)c1ccc(CNC(=O)OCc2cccnc2)cc1 + NC1CC1c1ccc(-c2cccc(O)c2)cc1
Solution: inactive

Problem: Test call, this compound: COc1cc(C2c3cc4c(cc3C(OC3OC5COC(C)OC5C(O)C3O)C3COC(=O)C23)OCO4)cc(OC)c1O (stereo unspecified) + NC1CCC(NC2CC2c2ccccc2)CC1
Solution: inactive

Problem: Test call, this compound: O=C(C=Cc1cccc(S(=O)(=O)Nc2ccccc2)c1)NO + NC1CCC(NC2CC2c2ccccc2)CC1
Solution: inactive

Problem: Test call, this compound: CCN(c1cc(-c2ccc(CN3CCOCC3)cc2)cc(C(=O)NCc2c(C)cc(C)[nH]c2=O)c1C)C1CCOCC1 + NC1CCC(NC2CC2c2ccccc2)CC1
Solution: inactive

Problem: Test call, this compound: CCN(c1cc(-c2ccc(CN3CCOCC3)cc2)cc(C(=O)NCc2c(C)cc(C)[nH]c2=O)c1C)C1CCOCC1 + NC1CC1c1ccc(-c2cccc(O)c2)cc1
Solution: inactive

Problem: Test call, this compound: NS(=O)(=O)OCC1CC(n2ccc3c(NC4CCc5ccccc54)ncnc32)CC1O (stereo unspecified) + NC1CC1c1ccc(-c2cccc(O)c2)cc1
Solution: inactive

Problem: Test call, this compound: Nc1ccccc1NC(=O)c1ccc(CNC(=O)OCc2cccnc2)cc1 + NC1CCC(NC2CC2c2ccccc2)CC1
Solution: inactive

Problem: Test call, this compound: Nc1ccn(C2OC(CO)C(O)C2(F)F)c(=O)n1 (stereo unspecified) + NC1CC1c1ccc(-c2cccc(O)c2)cc1
Solution: active
